Biological target: UniProt:Q16288
Sequence (Q16288 whole entry, looked up): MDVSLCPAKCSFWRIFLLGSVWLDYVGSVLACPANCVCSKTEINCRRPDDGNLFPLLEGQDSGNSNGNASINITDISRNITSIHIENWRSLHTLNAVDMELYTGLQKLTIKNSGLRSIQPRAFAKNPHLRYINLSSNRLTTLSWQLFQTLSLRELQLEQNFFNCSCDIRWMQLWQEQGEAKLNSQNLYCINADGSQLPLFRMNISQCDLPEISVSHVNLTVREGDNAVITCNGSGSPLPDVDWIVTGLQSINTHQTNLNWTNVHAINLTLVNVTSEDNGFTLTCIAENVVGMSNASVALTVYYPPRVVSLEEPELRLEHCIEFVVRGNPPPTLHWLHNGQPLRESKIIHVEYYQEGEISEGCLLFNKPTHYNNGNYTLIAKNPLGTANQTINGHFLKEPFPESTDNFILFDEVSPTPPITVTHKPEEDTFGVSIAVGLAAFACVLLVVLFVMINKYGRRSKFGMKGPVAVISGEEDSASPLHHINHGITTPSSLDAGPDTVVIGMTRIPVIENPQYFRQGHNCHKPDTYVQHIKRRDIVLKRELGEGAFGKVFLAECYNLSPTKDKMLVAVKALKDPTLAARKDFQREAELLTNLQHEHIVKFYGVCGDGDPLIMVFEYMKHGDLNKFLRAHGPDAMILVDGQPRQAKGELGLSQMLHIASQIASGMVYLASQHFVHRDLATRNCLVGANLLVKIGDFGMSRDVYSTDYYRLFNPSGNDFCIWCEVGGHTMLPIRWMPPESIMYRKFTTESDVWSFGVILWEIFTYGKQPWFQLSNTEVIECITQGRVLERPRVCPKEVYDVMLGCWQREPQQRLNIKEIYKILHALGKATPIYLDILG
Test: radiometric filter-binding kinase assay, Kinase HotSpot
Details: compound 0.5 µM; ATP 10 µM
Mark Met for reported residual activity of 90% or greater; mark Not met for anything smaller.

{"columns": ["Smiles string", "Qualitative label"],
 "data": [
  ["O=C1c2ccccc2-c2nc3nnnn3nc21", "Not met"],
  ["CN(C)c1ccc(/C=C2\\C(=O)Nc3ccccc32)cc1", "Not met"],
  ["O=C(c1cc2cc(O)ccc2[nH]1)c1cc2cc(O)ccc2[nH]1", "Not met"],
  ["NC(=O)c1cccc(-c2cc(Nc3ccc(OC(F)(F)F)cc3)ncn2)c1", "Met"],
  ["Cc1nc(-c2ccccc2)c(-c2ccncc2)o1", "Met"],
  ["COc1ccc(Cl)cc1NC(=O)Nc1cc(C)nc2ccccc12", "Met"],
  ["CS(=O)(=O)CCNCc1ccc(-c2ccc3ncnc(Nc4ccc(OCc5cccc(F)c5)c(Cl)c4)c3c2)o1", "Met"],
  ["O=C1Nc2ccc(Br)cc2/C1=C\\c1cc2c([nH]1)CCCC2", "Not met"]
]}

## Input Check if residual activity >= 90% (inclusive). Item: COc1ccc2c(c1)/C(=C/c1cnc[nH]1)C(O)=N2
## Output Not met

## Input Determine whether measured residual activity meets or exceeds 90% for O=C1NC(=O)c2c1c1c3ccccc3[nH]c1n1cncc21
## Output Not met

* * *

Target: CHEK2 (human)
Assay: radiometric filter-binding kinase assay, Kinase HotSpot
Conditions: compound 0.5 µM; ATP 10 µM
Endpoint name: residual activity (%)
Report the value in % with no unit label.

Some molecules with recorded residual activity:
{"columns": ["Smiles string", "Output unit", "residual activity"],
 "data": [
  ["O=C1Nc2ccc(Br)cc2/C1=C\\c1cc2c([nH]1)CCCC2", "%", 68.2],
  ["COc1cc2ncnc(Nc3ccc(OCc4ccccc4)cc3)c2cc1OC", "%", 14.2],
  ["CN(C)c1ccc(/C=C2\\C(=O)Nc3ccccc32)cc1", "%", 91.6],
  ["O=C1c2ccccc2-c2nc3nnnn3nc21", "%", 54.7],
  ["COc1ccc(S(=O)(=O)N(CCO)c2ccccc2CN(C)C/C=C/c2ccc(Cl)cc2)cc1", "%", 101]
]}

## Input Please report the measured residual activity for c1ccc2c(-c3ccncc3)c[nH]c2c1
## Output 99.3

## Input Return residual activity for the following molecule: Cn1c2ccccc2c2c3c(c4c5ccccc5n(CCC#N)c4c21)CNC3=O
## Output 50.2

## Input Give residual activity for Cc1cccc(-c2nc(C(C)(C)C)[nH]c2-c2ccc3c(c2)OCO3)n1
## Output 96.4

## Input Retrieve residual activity measured for COc1ccc2c(c1)/C(=C/c1cnc[nH]1)C(O)=N2 and print it.
## Output 77.9

## Input Determine from records and report residual activity for O=C(c1cc2cc(O)ccc2[nH]1)c1cc2cc(O)ccc2[nH]1
## Output 80.1

## Input // fetch residual activity given entry Cc1nc(-c2ccccc2)c(-c2ccncc2)o1
## Output 96.6

* * *

Tested on: FLT4 (human), P35916 [Q890H]
Sequence (P35916 whole entry, looked up, stated change not applied): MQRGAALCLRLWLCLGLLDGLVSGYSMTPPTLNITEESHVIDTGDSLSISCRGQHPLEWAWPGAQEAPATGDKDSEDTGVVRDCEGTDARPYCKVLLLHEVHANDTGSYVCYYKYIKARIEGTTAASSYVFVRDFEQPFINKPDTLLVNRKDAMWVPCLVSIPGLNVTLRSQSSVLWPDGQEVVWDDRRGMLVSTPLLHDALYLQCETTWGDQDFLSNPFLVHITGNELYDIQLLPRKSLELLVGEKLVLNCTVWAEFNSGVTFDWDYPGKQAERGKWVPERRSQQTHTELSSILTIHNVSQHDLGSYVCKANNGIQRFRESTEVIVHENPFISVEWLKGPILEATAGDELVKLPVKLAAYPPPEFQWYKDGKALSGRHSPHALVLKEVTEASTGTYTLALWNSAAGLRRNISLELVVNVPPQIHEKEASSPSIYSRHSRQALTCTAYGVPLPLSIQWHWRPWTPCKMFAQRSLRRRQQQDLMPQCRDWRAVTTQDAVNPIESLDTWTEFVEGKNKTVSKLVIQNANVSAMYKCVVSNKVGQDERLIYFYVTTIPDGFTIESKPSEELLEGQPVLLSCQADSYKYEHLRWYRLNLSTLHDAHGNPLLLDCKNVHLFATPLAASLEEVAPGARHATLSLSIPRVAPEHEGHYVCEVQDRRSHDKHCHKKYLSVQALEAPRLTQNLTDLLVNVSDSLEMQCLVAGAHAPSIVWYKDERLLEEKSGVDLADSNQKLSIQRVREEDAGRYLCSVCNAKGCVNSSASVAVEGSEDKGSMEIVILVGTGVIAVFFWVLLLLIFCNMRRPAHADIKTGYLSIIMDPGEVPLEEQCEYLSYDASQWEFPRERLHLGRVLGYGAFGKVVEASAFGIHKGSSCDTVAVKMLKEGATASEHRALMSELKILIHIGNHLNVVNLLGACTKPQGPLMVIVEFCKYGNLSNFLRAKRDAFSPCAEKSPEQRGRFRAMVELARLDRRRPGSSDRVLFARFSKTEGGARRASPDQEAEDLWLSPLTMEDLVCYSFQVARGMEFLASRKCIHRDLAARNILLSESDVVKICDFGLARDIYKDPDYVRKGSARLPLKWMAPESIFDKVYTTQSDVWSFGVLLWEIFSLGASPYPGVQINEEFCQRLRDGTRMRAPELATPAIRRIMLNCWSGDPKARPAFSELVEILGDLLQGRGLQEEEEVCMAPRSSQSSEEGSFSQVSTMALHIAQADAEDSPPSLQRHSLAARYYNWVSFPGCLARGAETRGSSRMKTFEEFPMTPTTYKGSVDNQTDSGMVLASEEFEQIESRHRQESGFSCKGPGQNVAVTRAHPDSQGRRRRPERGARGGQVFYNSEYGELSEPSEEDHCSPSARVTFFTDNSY
Test: radiometric filter-binding kinase assay, Kinase HotSpot
Details: compound 0.5 µM; ATP 10 µM
Endpoint name: residual activity (%)
// units = %; emit number, no label

Solved entries (count: 2):
{"columns": ["Smiles string", "residual activity, %"],
 "data": [
  ["Cn1cnc2cc3c(Nc4cccc(Br)c4)ncnc3cc21", 89.7],
  ["CCN(CC)CCNC(=O)c1c(C)[nH]c(/C=C2\\C(=O)Nc3ccc(Cl)cc32)c1C", 12.1]
]}

## Input Supply residual activity value. Item: CC(C)[C@H](CO)Nc1nc(Nc2cc(N)cc(Cl)c2)c2ncn(C(C)C)c2n1
## Output 80.7
